Listed below: zone of inhibition at 1000 µg/mL values for each entry.
System: Staphylococcus aureus
Assay: Antibacterial activity against Staphylococcus aureus ATCC 6538 assessed as growth inhibition at 1000 ug/mL after 24 hrs by disk diffusion assay
Assay type: functional
Protocol Conditions: ATCC 6538, 24 h, read-out: DIZ
Express your answer in mm, writing the number without its unit.

# count of solved cases: 2
* N#Cc1c(F)c(Cl)c(Nc2ccc(Nc3ccccc3)c3c(=O)[nH]cnc23)c(C#N)c1F | 8.9
* Cc1cccc(Nc2ccc(Nc3c(Cl)c(Cl)c(C#N)c(Cl)c3C#N)c3nc[nH]c(=O)c23)c1 | 9.7

Now let's try a different one.
Notebook entry, Staphylococcus aureus assay: zone of inhibition at 1000 µg/mL of CN(C)c1ccc(Nc2c(Cl)c(Cl)c(C#N)c(Cl)c2C#N)c2nc[nH]c(=O)c12 = ?
14.3
